From: the RNAGym collection of RNA variant scans (doi:10.1126/science.aae0568)

B1: tRNA (parent)
chain: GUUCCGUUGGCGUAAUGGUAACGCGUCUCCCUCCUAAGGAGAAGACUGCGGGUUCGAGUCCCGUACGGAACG

variants of: B1; test: yeast fitness relative to wild type (ratio to wild type); higher = fitter; tRNA-Arg(CCU), competitive growth, 37 C, YPD
Fewer inactive variants are shown than the library holds.
Collected yeast fitness values appear next to each entry.

Recorded results for 6 variants are shown here.
[[record]]
variant_spec = "G39A U53A A70G"
reported = "≤ 0.5"

[[record]]
variant_spec = "C5G U8C A15G G18C C62U"
reported = "≤ 0.5"

[[record]]
variant_spec = "C46A A65U"
reported = 0.843

[[record]]
variant_spec = "A21U C29A C30U C62G U64A"
reported = "≤ 0.5"

[[record]]
variant_spec = "C5A C46G"
reported = 0.719

[[record]]
variant_spec = "G9C C34G G51A A70G"
reported = "≤ 0.5"


## Task Item U2C U16C C27G G68A : provide yeast fitness
## Result ≤ 0.5

## Task Item C30U U32A A57U : provide yeast fitness
## Result 0.692

## Task Item C27U A36G G56C : provide yeast fitness
## Result ≤ 0.5

## Task Item U19C C29G U32G C61U C66A : provide yeast fitness
## Result ≤ 0.5
